- RUN DESCRIPTION: Aggregation property of the compound in NMR buffer assessed as aggregate size at 500 uM by dynamic light scattering analysis
- Type: physicochemical
ASSAY ENDPOINT: Activity

| SMILES STRING | Activity |
| --- | --- |
| C[C@@H]1CCc2c(cc(Br)c(F)c2Br)N1C=O | 90 to 600 nm |

Now examine the next entry.
The reported Activity of the compound `CC(C)(C)c1cc(C(=O)/C(C#N)=N/Nc2cccc(Cl)c2)no1` was 90 to 600 nm

* * *

- SYSTEM TESTED: Rap guanine nucleotide exchange factor 3 (Homo sapiens)
- Sequence (O95398 whole entry, the tested form may be a part): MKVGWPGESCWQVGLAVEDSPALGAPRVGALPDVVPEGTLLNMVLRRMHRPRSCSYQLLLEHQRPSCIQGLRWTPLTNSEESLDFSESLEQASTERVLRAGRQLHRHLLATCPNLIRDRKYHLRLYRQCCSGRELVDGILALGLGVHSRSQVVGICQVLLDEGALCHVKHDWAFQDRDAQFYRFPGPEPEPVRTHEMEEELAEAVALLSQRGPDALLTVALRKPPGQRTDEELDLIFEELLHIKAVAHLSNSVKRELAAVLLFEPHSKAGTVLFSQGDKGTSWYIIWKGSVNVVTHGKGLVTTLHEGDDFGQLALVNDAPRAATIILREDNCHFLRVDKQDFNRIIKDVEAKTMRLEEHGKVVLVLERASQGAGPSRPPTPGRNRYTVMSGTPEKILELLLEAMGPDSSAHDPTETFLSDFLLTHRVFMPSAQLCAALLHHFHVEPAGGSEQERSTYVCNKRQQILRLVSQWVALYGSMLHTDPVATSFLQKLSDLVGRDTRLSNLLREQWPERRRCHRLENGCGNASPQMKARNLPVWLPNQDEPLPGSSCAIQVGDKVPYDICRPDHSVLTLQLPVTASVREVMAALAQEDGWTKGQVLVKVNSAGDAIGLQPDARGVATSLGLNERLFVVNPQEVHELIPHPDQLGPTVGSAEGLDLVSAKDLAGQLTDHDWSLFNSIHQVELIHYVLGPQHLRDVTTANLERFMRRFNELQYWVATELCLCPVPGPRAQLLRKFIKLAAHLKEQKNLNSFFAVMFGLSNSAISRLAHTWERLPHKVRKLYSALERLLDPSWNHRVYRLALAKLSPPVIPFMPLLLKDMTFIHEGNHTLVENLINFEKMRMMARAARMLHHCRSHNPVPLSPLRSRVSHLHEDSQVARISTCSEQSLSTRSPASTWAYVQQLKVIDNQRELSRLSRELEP
- RUN DESCRIPTION: Inhibition of 8-NBD-cAMP binding to human EPAC1 cAMP binding domain (149 to 318 residues) by fluorescence assay
ASSAY ENDPOINT: Kd (µM)
Give bare numbers, in µM.

The reported Kd of the molecule `CC(C)(C)c1cc(C(=O)/C(C#N)=N/Nc2cccc(Cl)c2)no1` was 20
